# target.system: T1, cynomolgus monkey IL-15 (mfIL-15+mfIL-15Rα complex), tag on IL-15Rα not stated (cynomolgus monkey (Macaca fascicularis), UniProt P40221 49-162; Q13261 31-128)
# T1 construct: also called monkey IL-15+IL-15Rα superagonist
# T1 chain 1: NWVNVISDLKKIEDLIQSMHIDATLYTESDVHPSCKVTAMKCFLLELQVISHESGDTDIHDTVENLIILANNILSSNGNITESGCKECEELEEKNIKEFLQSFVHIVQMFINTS
# T1 chain 2: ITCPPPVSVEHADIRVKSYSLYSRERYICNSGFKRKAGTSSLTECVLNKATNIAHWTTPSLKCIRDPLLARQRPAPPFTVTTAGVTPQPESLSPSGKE
# procedure.details: SPR (Biacore T200), as in Example 2.2
parameter: koff (s⁻¹)
Write the answer as a number in s⁻¹, unit excluded.

Ask: Can you look up the measured koff of anti-human IL-15 monoclonal antibody R26H10 (antibody, V domains shown, Humanized mutant of R6E11 with a fully human light chain; captured by anti-human IgG (Fc) in SPR and detected with anti-human IgG in ELISA) VH: QVTLKESGPVLVKPTETLTLTCTVSGFSLTTYAVHWIRQPPGKALEWLGVIWGAGSTDYNPSFMSRLTISKDTSKSQVVLTMTNMDPVDTATYYCAKNAAYYVMDYWGQGTTVTVSS VL: EIVLTQSPGTLSLSPGERATLSCRASQSVIYSYLAWYQQKPGQAPRLLIYAASKLASGIPDRFSGSGSGTDFTLTISRLEPEDFAVYYCQQRASYPLTFGQGTKVEIK for me?
Reply: 0.021
